Test system: HCV 1b_Huh-Luc/Neo-ET cell line persistently expressing a bicistronic genotype 1b replicon in Huh 7 cells
Test: HCV replicon assay (luciferase readout)
Assay type: cell-based
Settings: Hepatitis C virus, Huh-7, 72 h, read-out: Inhibition of HCV genotype 1b
Measured EC50 of individual entries
experimental endpoint: EC50

COC(=O)N[C@@H](C(=O)N[C@@H](C)c1ncc(-c2ccc(C#Cc3ccc(-c4cnc([C@@H]5CCCN5C(=O)[C@H](NC(=O)OC)c5ccccc5)[nH]4)cc3)cc2)[nH]1)c1ccccc1 < 1 nM
O=C(N[C@@H](C(=O)N1CCC[C@H]1c1ncc(-c2ccc(C#Cc3ccc(-c4cnc([C@@H]5CCCN5C(=O)[C@H](NC(=O)N5CC[C@H](O)C5)c5ccccc5)[nH]4)cc3)cc2)[nH]1)c1ccccc1)N1CC[C@H](O)C1 < 1 nM

###

System: HCV 1b_Huh-Luc/Neo-ET cell line persistently expressing a bicistronic genotype 1b replicon in Huh 7 cells
Test: HCV replicon assay (luciferase readout)
Format: cell-based
Conditions: Hepatitis C virus, Huh-7, 72 h, read-out: Inhibition of HCV genotype 1b
Measured EC50 of individual entries
experimental endpoint: EC50

COC(=O)N[C@H](C(=O)N1CCC[C@H]1c1nc2ccc(C#Cc3ccc(-c4cnc([C@@H]5CCCN5C(=O)[C@H](C(C)C)N(C)C)[nH]4)cc3)cc2[nH]1)C(C)C < 1 nM
COC(=O)N[C@H](C(=O)N1CCC[C@H]1c1nc2ccc(C#Cc3ccc4nc([C@@H]5CCCN5C(=O)[C@@H](NC(=O)OC)C(C)C)[nH]c4c3)cc2[nH]1)C(C)C < 1 nM
COC(=O)N[C@@H](C(=O)N1CCC[C@H]1c1ncc(-c2ccc(C#Cc3ccc(-c4cnc([C@@H]5CCCN5C(=O)[C@H](NC(=O)N5CCC(C)(O)CC5)c5ccccc5)[nH]4)cc3)cc2)[nH]1)c1ccccc1 < 1 nM
COC(=O)N[C@@H](C(=O)N1CCC[C@H]1c1ncc(-c2ccc(C#Cc3ccc(-c4cnc([C@@H]5CCCN5C(=O)[C@H](NC(=O)[C@H]5CCCN5)c5ccccc5)[nH]4)cc3)cc2)[nH]1)c1ccccc1 < 1 nM
COC(=O)N[C@@H](C(=O)N1CCC[C@H]1c1ncc(-c2ccc(C#Cc3ccc(C(=O)NC[C@@H]4CCCN4C(=O)[C@H](NC(=O)N4CCOCC4)c4ccccc4)cc3)cc2)[nH]1)c1ccccc1 < 1 nM

###

Tested on: HCV 1b_Huh-Luc/Neo-ET cell line persistently expressing a bicistronic genotype 1b replicon in Huh 7 cells
Assay: HCV replicon assay (luciferase readout)
Type: cell-based
Settings: Hepatitis C virus, Huh-7, 72 h, read-out: Inhibition of HCV genotype 1b
experimental endpoint: EC50

COC(=O)N[C@@H](C(=O)N1CCC[C@H]1c1ncc(C#Cc2ccc(C#Cc3cnc([C@@H]4CCCN4C(=O)[C@@H](c4ccccc4)N(C)C)[nH]3)cc2)[nH]1)c1ccccc1 < 1 nM
COC(=O)N[C@H](C(=O)N1CCC[C@H]1c1ncc(-c2ccc(C#Cc3ccc(-c4cnc([C@@H]5CCCN5C(=O)[C@H](NC(=O)OC)c5ccccc5)[nH]4)cc3)cc2)[nH]1)C(C)C < 1 nM
CC(C)(C)OC(=O)N[C@@H](C(=O)N1CCC[C@H]1c1ncc(-c2ccc(C#Cc3ccc4nc([C@@H]5CCCN5C(=O)[C@H](NC(=O)OC(C)(C)C)c5ccccc5)[nH]c4c3)cc2)[nH]1)c1ccccc1 < 1 nM

###

Test system: HCV 1b_Huh-Luc/Neo-ET cell line persistently expressing a bicistronic genotype 1b replicon in Huh 7 cells
Assay: HCV replicon assay (luciferase readout)
Type: cell-based
Conditions: Hepatitis C virus, Huh-7, 72 h, read-out: Inhibition of HCV genotype 1b
Measured EC50 of individual entries
experimental endpoint: EC50

O=C(N[C@@H](C(=O)N1CCC[C@H]1c1nc(-c2ccc3cc(C#Cc4cnc([C@@H]5CCCN5C(=O)[C@H](NC(=O)C5CC5)c5ccccc5)[nH]4)ccc3c2)c[nH]1)c1ccccc1)C1CC1 < 1 nM
O=C(N[C@@H](C(=O)N1CCC[C@H]1c1cc(-c2ccc(C#Cc3ccc(-c4cnc([C@@H]5CCCN5C(=O)[C@H](NC(=O)C5CC5)c5ccccc5)[nH]4)cc3)cc2)n[nH]1)c1ccccc1)C1CC1 < 1 nM
CN1CCN(C(=O)N[C@@H](C(=O)N2CCC[C@H]2c2ncc(C#Cc3ccc(C#Cc4cnc([C@@H]5CCCN5C(=O)[C@H](NC(=O)N5CCN(C)CC5)c5ccccc5)[nH]4)cc3)[nH]2)c2ccccc2)CC1 1 to 9.9 nM
O=C(N[C@@H](C(=O)N1CCC[C@H]1c1nc(-c2ccc3cc(C#Cc4cnc([C@@H]5CCCN5C(=O)[C@H](NC(=O)N5CC[C@@H](O)C5)c5ccccc5)[nH]4)ccc3c2)c[nH]1)c1ccccc1)N1CC[C@@H](O)C1 1 to 9.9 nM
COC(=O)N[C@H](C(=O)N1CCC[C@H]1c1nc(-c2ccc3cc(C#Cc4cnc([C@@H]5CCCN5C(=O)[C@@H](NC(=O)OC)C5CCOCC5)[nH]4)ccc3c2)c[nH]1)C(C)C < 1 nM
CN(C)[C@@H](C(=O)N1CCC[C@H]1c1ncc(-c2ccc(C#Cc3ccc(-c4cnc([C@@H]5CCCN5C(=O)[C@@H](c5ccccc5)N(C)C)[nH]4)cc3)cc2)[nH]1)c1ccccc1 < 1 nM
COC(=O)N[C@@H](C(=O)N1CCC[C@H]1c1ncc(-c2ccc(C#Cc3ccc4nc([C@@H]5CCCN5C(=O)[C@H](NC(=O)OC)c5ccccc5)[nH]c4c3)cc2)[nH]1)c1ccccc1 < 1 nM
COC(=O)N[C@@H](C(=O)N1CCC[C@H]1c1ncc(-c2ccc(C#Cc3ccc(-c4cnc([C@@H]5CCCN5C(=O)C5(c6ccccc6)CC5)[nH]4)cc3)cc2)[nH]1)c1ccccc1 < 1 nM
COC(=O)NC1(C(=O)N2CCC[C@H]2c2ncc(-c3ccc(C#Cc4ccc5nc([C@@H]6CCCN6C(=O)C6(NC(=O)OC)CCCC6)[nH]c5c4)cc3)[nH]2)CCCC1 10 to 999 nM
COC(=O)N[C@H](C(=O)N1CCC[C@H]1c1ncc(-c2ccc(C#Cc3ccc(-c4cnc([C@@H]5CCCN5C(=O)[C@@H](NC(=O)OC)C(C)C)[nH]4)cc3)cc2)[nH]1)C(C)C < 1 nM
CN(C)[C@@H](C(=O)N1CCC[C@H]1c1ncc(-c2ccc(C#Cc3cnc([C@@H]4CCCN4C(=O)[C@H](NC(=O)C4CC4)c4ccccc4)[nH]3)cc2)[nH]1)c1ccccc1 < 1 nM
CC(C)(C)OC(=O)N1CCC[C@H]1c1ncc(C#Cc2ccc(-c3cnc([C@@H]4CCCN4C(=O)OC(C)(C)C)[nH]3)cc2)[nH]1 10 to 999 nM
C[C@@H](NC(=O)C1CC1)C(=O)N1CCC[C@H]1c1ncc(-c2ccc(C#Cc3ccc(-c4cnc([C@@H]5CCCN5C(=O)[C@@H](C)NC(=O)C5CC5)[nH]4)cc3)cc2)[nH]1 1 to 9.9 nM
O=C(N[C@@H](C(=O)N1CCC[C@H]1c1ncc(-c2ccc(C#Cc3ccc(-c4cnc([C@@H]5CCCN5C(=O)[C@H](NC(=O)C5CC5)c5ccccc5)[nH]4)cc3)cc2)[nH]1)c1ccccc1)C1CC1 < 1 nM
COC(=O)NC1(C(=O)N2CCC[C@H]2c2ncc(-c3ccc(C#Cc4ccc5nc([C@@H]6CCCN6C(=O)C6(NC(=O)OC)CC6)[nH]c5c4)cc3)[nH]2)CC1 10 to 999 nM
CO[C@@H](C(=O)N1CCC[C@H]1c1ncc(-c2ccc(C#Cc3ccc(-c4cnc([C@@H]5CCCN5C(=O)[C@H](OC)c5ccccc5)[nH]4)cc3)cc2)[nH]1)c1ccccc1 < 1 nM
CC(C)(C)OC(=O)NCC(=O)N1CCC[C@H]1c1ncc(C#Cc2ccc(-c3cnc([C@@H]4CCCN4C(=O)CNC(=O)OC(C)(C)C)[nH]3)cc2)[nH]1 10 to 999 nM
COC(=O)N[C@@H](C(=O)N1CCC[C@H]1c1ncc(C#Cc2ccc(-c3ccc(-c4cnc([C@@H]5CCCN5C(=O)[C@H](NC(=O)OC(C)(C)C)c5ccccc5)[nH]4)cc3)cc2)[nH]1)c1ccccc1 < 1 nM
C[C@H]1OC(=O)N[C@@H]1C(=O)N1CCC[C@H]1c1ncc(-c2ccc(C#Cc3ccc(-c4cnc([C@@H]5CCCN5C(=O)[C@H]5NC(=O)O[C@@H]5C)[nH]4)cc3)cc2)[nH]1 10 to 999 nM

###

System: HCV 1b_Huh-Luc/Neo-ET cell line persistently expressing a bicistronic genotype 1b replicon in Huh 7 cells
Assay: HCV replicon assay (luciferase readout)
Assay type: cell-based
Settings: Hepatitis C virus, Huh-7, 72 h, read-out: Inhibition of HCV genotype 1b
pEC50: −log10 of the molar value.
Measured pEC50 of individual entries
experimental endpoint: pEC50

compound	reported measurement
CCN(CC)[C@@H](C(=O)N1CCC[C@H]1c1ncc(-c2ccc(C#Cc3ccc(-c4cnc([C@@H]5CCCN5C(=O)[C@H](NS(C)(=O)=O)c5ccccc5)[nH]4)cc3)cc2)[nH]1)c1ccccc1 [Compound 229]	> 9.00
C[C@@H](NC(=O)OC(C)(C)C)C(=O)N1CCC[C@H]1c1ncc(-c2ccc(C#Cc3ccc(-c4cnc([C@@H]5CCCN5C(=O)[C@@H](C)NC(=O)OC(C)(C)C)[nH]4)cc3)cc2)[nH]1 [Compound 151]	6.00 to 8.00
O=C(N[C@@H](C(=O)N1CCC[C@H]1C(=O)Nc1ccc(C#Cc2ccc(-c3cnc([C@@H]4CCCN4C(=O)[C@H](NC(=O)C4CC4)c4ccccc4)[nH]3)cc2)cc1)c1ccccc1)C1CC1 [Compound 166]	> 9.00
